system: MCF7 breast; test: NCI-60 one-dose screen, 48 h; conditions: 10 µM unless noted
This is part of a sample that, as a whole, favours compounds with a hit. Of some 83,000 tested, about 20% had one in any assay. Calls of active or inactive are those of the source. The calls were made as follows: active = growth percent below 10; inactive = the rest.
Classes to choose from: active, inactive

The examples below pair each entry with its known result.
Smiles Notation: Cc1ccc(S(=O)(=O)NCCCNc2nccc(-c3c(-c4ccccc4)nc4sccn34)n2)cc1
Cat: inactive

Smiles Notation: Cc1nc2scc(-c3ccccc3)n2c(=O)c1CCO
Cat: inactive

Smiles Notation: COc1ccc(OC)c(C(=O)c2oc3ccc(Br)cc3c2N)c1
Cat: inactive

Smiles Notation: CCN(CC)CCSc1c2ccc(Cl)cc2nc2ccc(OC)cc12
Cat: inactive

Smiles Notation: COc1ccc2c(c1)NC(=O)CN2c1nc(NC2CC2)nc2ccccc12
Cat: active

Smiles Notation: CC(C)C[C@H](NC(=O)[C@H](Cc1ccccc1)n1ccc(N2CCCCC2)cc1=O)B(O)O
Cat: inactive

Smiles Notation: COC1=CC(c2ccc[nH]2)=N/C1=C\c1[nH]c(C)c(C(=O)CCCCC(=O)NCc2ccccc2)c1C
Cat: active

Smiles Notation: CCCCCCCCCCCCOB(OCCCCCCCCCCCC)OCCCCCCCCCCCC
Cat: inactive

Smiles Notation: Nc1nc(-c2cc3ccccc3o2)cc(=O)c(=O)[nH]1
Cat: inactive

For the next question, use this compound.
Could you check what this test reported for `COc1cc(NS(C)(=O)=O)ccc1Nc1c2ccc([N+](=O)[O-])cc2nc2c(C)cccc12` ?
inactive

###

We begin with a simple list: items and their reported growth.
system: MCF7 breast; test: NCI-60 one-dose screen, 48 h (100 = growth as untreated, 0 = no growth, -100 = all killed); settings: 10 µM unless noted
The panel holds about 83,000 compounds, 20% with a hit somewhere; the sample as a whole holds those more often.
Record the value in %, omitting the unit from your answer.

Compound: CCCCCCCCCCCCCCCCCCOc1cccc(CCOP(=O)(O)OCC[N+](C)(C)C)c1
growth / %: 88.8
//
Compound: CCCCCc1c(C)[nH]c(/C=c2\[nH]/c(=C3/C=c4ccccc4=N3)cc2OC)c1C
growth / %: -54.5

Using the record for `Cc1ccnc2nc(C(=O)OCC(=O)Nc3ccc(-c4ccccc4)cc3)nn12` , report its growth.
105

Please report the recorded growth for C#CCN1C(=O)/C(=c2\sc3n(c2=O)NC2C(N=3)N(CC)C(=O)N2CC)c2ccccc21 (stereo not given) .
42.2

Could you share which growth value was measured for COc1cc(C2C=C(C)N=C3SC=CN32)cc(OC)c1OC (stereo not given) ?
93.3

###

system: HCT-116 colon; assay: NCI-60 one-dose screen, 48 h (100 = growth as untreated, 0 = no growth, -100 = all killed); details: 10 µM unless noted
This is part of a sample that, as a whole, favours compounds with a hit. Of some 83,000 tested, about 20% had one in any assay. Activity calls are given as the source filed them. The calls were made as follows: active = growth percent below 10; inactive = the rest.
// reported growth per item

These recorded examples may help you get a feel for the data.
Compound: O=S(=O)(NCCNc1nccc(-c2c(-c3ccccc3)nc3sccn23)n1)c1ccc(O)cc1
Parameter: growth
Result: 21.5% (inactive)
--
Compound: CN1CCN(c2ccc3cc(-c4nc5ccccc5[nH]4)c(=O)oc3c2)CC1
Parameter: growth
Result: 81.9% (inactive)
--
Compound: COc1ccc(C(=O)N2CCN(C(=O)c3cc(OC)c(OC)c(OC)c3)CC2)cc1OCCCCOc1cc2c(cc1OC)C(=O)N1CCC[C@H]1C=N2
Parameter: growth
Result: 101% (inactive)

Which growth value belongs to Cc1cc2c(c(=O)o1)C(c1ccc(OC(=O)N3CCOCC3)cc1)C(C#N)=C(N)O2 (centres undefined) ?
104% (inactive)

Bench note: what growth did `O=Nc1c(-c2c(O)[nH]c3ccc([N+](=O)[O-])cc23)[nH]c2ccc(O)cc12` show?
2.29% (active)

Report growth for `O=c1oc2cc(OS(=O)(=O)c3ccc(F)cc3)ccc2c2c1CCCCC2` please.
54.4% (inactive)

Which value of growth has been reported for COc1cc2c(cc1OC)C1(C)N(CC2)C(=O)OC1(C)C (centres undefined) in the records?
104% (inactive)

// returns reported growth for input `COc1cc(/C=C/C(=O)c2ccccc2O)ccc1OCCCOc1cc2c(cc1OC)C(=O)N1CCC[C@H]1C=N2`
2.66% (active)

What does the record list as growth for `C[C@]12CC[C@@H]3c4cc(O)c(O)cc4CC[C@H]3[C@@H]1CC[C@@H]2O` ?
37.9% (inactive)
